Biological target: P2RY6 (Homo sapiens, UniProt Q15077)
Construct: purchased Promega (in-house HiBiT-GPCR construct library, NanoBRET)
Sequence (Q15077 whole entry): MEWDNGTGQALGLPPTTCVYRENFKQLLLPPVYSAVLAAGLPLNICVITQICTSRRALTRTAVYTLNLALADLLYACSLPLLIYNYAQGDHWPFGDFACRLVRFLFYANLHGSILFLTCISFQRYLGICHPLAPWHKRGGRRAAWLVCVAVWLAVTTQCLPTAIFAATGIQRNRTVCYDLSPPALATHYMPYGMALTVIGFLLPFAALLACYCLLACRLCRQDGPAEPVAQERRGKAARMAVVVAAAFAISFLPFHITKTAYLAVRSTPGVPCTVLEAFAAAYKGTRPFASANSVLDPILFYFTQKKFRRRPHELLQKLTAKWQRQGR
Experiment: NanoBRET screen HiBiT-P2RY6 in HEK293
Format: binding
Conditions: P2RY6; tracer 0.1μM
parameter: NanoBRET Fold Response
Number, no unit, nothing else.

Below: 4 molecules and their reported NanoBRET Fold Response.
molecule=O=C(CCOCCOCCOCCOCCNC(=O)CCc1ccc2n1[B-](F)(F)[N+]1=C(c3ccc[nH]3)C=CC1=C2)NCCCN1CCN(C2=Nc3ccccc3Oc3ccc(Cl)cc32)CC1 assaytarget="P2RY6 (Homo sapiens, UniProt Q15077)" valuereported=1.26
molecule=COc1ccccc1N1CCN(CCCCN2C(=O)c3ccc(CNC(=O)CCOCCOCCOCCOCCNC(=O)CCc4ccc5n4[B-](F)(F)[N+]4=C(c6ccc[nH]6)C=CC4=C5)cc3C2=O)CC1 assaytarget="P2RY6 (Homo sapiens, UniProt Q15077)" valuereported=0.96
molecule=O=C(CCc1ccc2n1[B-](F)(F)[N+]1=C(c3ccc[nH]3)C=CC1=C2)NCCOCCOCCNC(=O)OCCOCCN1CCN(C2=Nc3ccccc3Sc3ccccc32)CC1 assaytarget="P2RY6 (Homo sapiens, UniProt Q15077)" valuereported=1.30
molecule="Cc1nc2n(c(=O)c1CCN1CCC(c3noc4cc(F)ccc34)CC1)CCCC2OC(=O)NCCOCCOCCOCCOCCNC(=O)CCc1ccc2n1[B-](F)(F)[N+]1=C(c3ccc[nH]3)C=CC1=C2 (centres unmarked)" assaytarget="P2RY6 (Homo sapiens, UniProt Q15077)" valuereported=1.00

// next item, NanoBRET Fold Response requested
In plain terms, O=C(CCc1ccc2n1[B-](F)(F)[N+]1=C(c3ccc[nH]3)C=CC1=C2)NCc1ccc(C(=O)NCCOCCC(=O)N[C@@H]2CC[C@@]3(O)[C@H]4Cc5ccc(O)c6c5[C@@]3(CCN4CC3CC3)[C@H]2O6)cc1 [Naltrexone-3-NB590] has a documented NanoBRET Fold Response of 0.84

====

Known NanoBRET Fold Response of a selection of molecules
Target: ADRA2C (Homo sapiens)
Construct: purchased Promega (in-house HiBiT-GPCR construct library, NanoBRET)
Sequence (P18825 1-462): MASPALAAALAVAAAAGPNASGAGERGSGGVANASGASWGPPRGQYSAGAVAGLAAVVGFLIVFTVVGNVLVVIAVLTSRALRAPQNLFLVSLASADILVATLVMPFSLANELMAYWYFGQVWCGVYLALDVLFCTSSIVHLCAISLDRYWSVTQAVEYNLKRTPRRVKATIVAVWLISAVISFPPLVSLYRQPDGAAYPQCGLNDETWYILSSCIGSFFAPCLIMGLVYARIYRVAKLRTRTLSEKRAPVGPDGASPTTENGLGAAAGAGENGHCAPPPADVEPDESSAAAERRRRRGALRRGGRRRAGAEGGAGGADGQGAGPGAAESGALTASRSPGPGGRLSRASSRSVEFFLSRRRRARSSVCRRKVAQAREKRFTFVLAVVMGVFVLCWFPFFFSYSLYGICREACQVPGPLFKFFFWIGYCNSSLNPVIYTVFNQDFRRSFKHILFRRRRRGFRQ
Assay: NanoBRET screen HiBiT-ADRA2C in HEK293
Format: binding
Settings: ADRA2C; tracer 1μM
Write no unit; give the number alone.

Consider the following illustrative entries.
chemsmiles=O=C(CCOCCOCCOCCOCCNC(=O)CCc1ccc2n1[B-](F)(F)[N+]1=C(c3ccc[nH]3)C=CC1=C2)NCCCN1CCN(C2=Nc3ccccc3Oc3ccc(Cl)cc32)CC1 valuereported=1.54
chemsmiles=CC(C)N(CC[C@H](c1ccccc1)c1cc(CCNC(=O)CCOCCOCCOCCOCCNC(=O)CCc2ccc3n2[B-](F)(F)[N+]2=C(c4ccc[nH]4)C=CC2=C3)ccc1O)C(C)C valuereported=1.04

Turning now to a further record.
// NanoBRET Fold Response value for COc1ccccc1N1CCN(CCCCN2C(=O)c3ccc(CNC(=O)CCOCCNC(=O)c4ccc(CNC(=O)CCc5ccc6n5[B-](F)(F)[N+]5=C(c7ccc[nH]7)C=CC5=C6)cc4)cc3C2=O)CC1 : 1.33

====

NanoBRET Fold Response values, listed per item
Biological target: P2RY10 (Homo sapiens, UniProt O00398)
Construct: purchased Promega (in-house HiBiT-GPCR construct library, NanoBRET)
Sequence (O00398 whole entry, one chain of several): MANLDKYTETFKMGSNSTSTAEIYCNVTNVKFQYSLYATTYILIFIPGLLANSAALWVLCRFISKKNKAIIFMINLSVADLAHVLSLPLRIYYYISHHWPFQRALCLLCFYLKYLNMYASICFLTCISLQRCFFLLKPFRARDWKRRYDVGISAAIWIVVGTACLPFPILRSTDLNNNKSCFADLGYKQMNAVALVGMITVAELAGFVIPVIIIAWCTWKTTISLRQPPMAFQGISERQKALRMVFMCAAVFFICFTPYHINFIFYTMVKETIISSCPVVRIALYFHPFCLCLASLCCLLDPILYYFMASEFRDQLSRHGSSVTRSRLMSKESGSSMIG
Assay: NanoBRET screen HiBiT-P2RY10 in HEK293
Type: binding
Conditions: P2RY10; tracer 1μM
Procedure: Each tracer candidate was screened across the entire library of HiBiT-GPCR constructs using NanoBRET as the detection modality. As depicted in Figure 4A, the specificity of interactions was evaluated through decrease in BRET due to competitive displacement of a bound tracer by excess parental compound. Each tracer was analyzed for binding to each HiBiT-GPCR fusion in the absence and in the presence of competing parental compound. […]
I only need the number, thanks.

Consider the reported NanoBRET Fold Response for these compounds:
compound="O=C(CCc1ccc2n1[B-](F)(F)[N+]1=C(c3ccc[nH]3)C=CC1=C2)NCc1ccc(C(=O)NCCOCCC(=O)N[C@@H]2CC[C@@]3(O)[C@H]4Cc5ccc(O)c6c5[C@@]3(CCN4CC3CC3)[C@H]2O6)cc1 [Naltrexone-3-NB590]" valuereported=1.36
compound="COc1ccccc1N1CCN(CCCCN2C(=O)c3ccc(CNC(=O)CCOCCOCCOCCOCCNC(=O)CCc4ccc5n4[B-](F)(F)[N+]4=C(c6ccc[nH]6)C=CC4=C5)cc3C2=O)CC1 [NAN-190-2-NB590]" valuereported=0.95
compound="N#CN=C(NCCCOc1cccc(CN2CCCCC2)c1)NCCNC(=O)CCOCCOCCOCCOCCNC(=O)CCc1ccc2n1[B-](F)(F)[N+]1=C(c3ccc[nH]3)C=CC1=C2 [Aminopotentidine-2-NB590]" valuereported=1.02
compound="O=C(CCc1ccc2n1[B-](F)(F)[N+]1=C(c3ccc[nH]3)C=CC1=C2)NCCOCCOCCNC(=O)OCCOCCN1CCN(C2=Nc3ccccc3Sc3ccccc32)CC1 [Quetiapine-a-2-NB590]" valuereported=0.95
compound="Cc1cc2c(s1)Nc1ccccc1N=C2N1CCN(CCCNC(=O)CCOCCOCCOCCOCCNC(=O)CCc2ccc3n2[B-](F)(F)[N+]2=C(c4ccc[nH]4)C=CC2=C3)CC1 [Olanzapine-a-2-NB590]" valuereported=1.15
compound="CC(C)N(CC[C@H](c1ccccc1)c1cc(CCNC(=O)c2ccc(CNC(=O)CCc3ccc4n3[B-](F)(F)[N+]3=C(c5ccc[nH]5)C=CC3=C4)cc2)ccc1O)C(C)C [Tolterodine-BZ-NB590]" valuereported=0.76

Summary line: CC(C)N(CC[C@H](c1ccccc1)c1cc(CCNC(=O)CCOCCOCCOCCOCCNC(=O)CCc2ccc3n2[B-](F)(F)[N+]2=C(c4ccc[nH]4)C=CC2=C3)ccc1O)C(C)C [Tolterodine-2-NB590] , P2RY10 (Homo sapiens, UniProt O00398), reported NanoBRET Fold Response = 0.89

Bench note, P2RY10 (Homo sapiens, UniProt O00398): entry Cc1nc2n(c(=O)c1CCN1CCC(c3noc4cc(F)ccc34)CC1)CCCC2OC(=O)NCCOCCOCCOCCOCCNC(=O)CCc1ccc2n1[B-](F)(F)[N+]1=C(c3ccc[nH]3)C=CC1=C2 (centres unmarked) [Risperidone-2-NB590] , its NanoBRET Fold Response = 1.14

# value of NanoBRET Fold Response, P2RY10 (Homo sapiens, UniProt O00398), item O=C(CCOCCOCCOCCOCCNC(=O)CCc1ccc2n1[B-](F)(F)[N+]1=C(c3ccc[nH]3)C=CC1=C2)NCCCN1CCN(C2=Nc3ccccc3Oc3ccc(Cl)cc32)CC1 [Loxapine-a-2-NB590] = 0.98

Entry CCCn1c(=O)c2[nH]c(-c3ccc(OCC(=O)NCCNC(=O)CCOCCNC(=O)c4ccc(CNC(=O)CCc5ccc6n5[B-](F)(F)[N+]5=C(c7ccc[nH]7)C=CC5=C6)cc4)cc3)nc2n(CCC)c1=O [XAC-3-NB590] , tested on P2RY10 (Homo sapiens, UniProt O00398), has a reported NanoBRET Fold Response of 0.84

Summary line: COc1ccccc1N1CCN(CCCCN2C(=O)c3ccc(CNC(=O)CCOCCNC(=O)c4ccc(CNC(=O)CCc5ccc6n5[B-](F)(F)[N+]5=C(c7ccc[nH]7)C=CC5=C6)cc4)cc3C2=O)CC1 [NAN-190-3-NB590] , P2RY10 (Homo sapiens, UniProt O00398), reported NanoBRET Fold Response = 1.08

====

Here, each record is paired with measured NanoBRET Fold Response data.
Molecular target: AGTR2 (Homo sapiens)
Construct: purchased Promega (in-house HiBiT-GPCR construct library, NanoBRET)
Sequence (P50052 whole entry): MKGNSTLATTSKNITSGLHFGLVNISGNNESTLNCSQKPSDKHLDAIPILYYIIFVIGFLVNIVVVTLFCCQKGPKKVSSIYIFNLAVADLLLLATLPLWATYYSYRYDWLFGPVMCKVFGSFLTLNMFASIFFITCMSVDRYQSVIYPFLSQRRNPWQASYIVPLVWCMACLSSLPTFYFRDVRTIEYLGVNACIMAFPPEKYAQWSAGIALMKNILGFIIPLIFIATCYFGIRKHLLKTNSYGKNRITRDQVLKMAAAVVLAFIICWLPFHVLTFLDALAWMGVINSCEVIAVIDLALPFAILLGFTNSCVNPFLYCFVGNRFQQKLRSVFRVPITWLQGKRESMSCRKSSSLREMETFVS
Experiment: NanoBRET screen HiBiT-AGTR2 in HEK293
Format: binding
Details: AGTR2; tracer 0.1μM
Procedure: Each tracer candidate was screened across the entire library of HiBiT-GPCR constructs using NanoBRET as the detection modality. As depicted in Figure 4A, the specificity of interactions was evaluated through decrease in BRET due to competitive displacement of a bound tracer by excess parental compound. Each tracer was analyzed for binding to each HiBiT-GPCR fusion in the absence and in the presence of competing parental compound. […]
The answer should be a number; do not append a unit.

compound=COc1ccccc1N1CCN(CCCCN2C(=O)c3ccc(CNC(=O)CCOCCNC(=O)c4ccc(CNC(=O)CCc5ccc6n5[B-](F)(F)[N+]5=C(c7ccc[nH]7)C=CC5=C6)cc4)cc3C2=O)CC1 valuereported=0.99

The compound listed as Cc1nc2n(c(=O)c1CCN1CCC(c3noc4cc(F)ccc34)CC1)CCCC2OC(=O)NCCOCCOCCOCCOCCNC(=O)CCc1ccc2n1[B-](F)(F)[N+]1=C(c3ccc[nH]3)C=CC1=C2 (centres unmarked) shows NanoBRET Fold Response equal to 1.10

What the record says about N#CN=C(NCCCOc1cccc(CN2CCCCC2)c1)NCCNC(=O)CCOCCOCCOCCOCCNC(=O)CCc1ccc2n1[B-](F)(F)[N+]1=C(c3ccc[nH]3)C=CC1=C2 : NanoBRET Fold Response is 0.98

Summary for this compound, COc1ccccc1N1CCN(CCCCN2C(=O)c3ccc(CNC(=O)CCOCCOCCOCCOCCNC(=O)CCc4ccc5n4[B-](F)(F)[N+]4=C(c6ccc[nH]6)C=CC4=C5)cc3C2=O)CC1 : NanoBRET Fold Response is 1.02

The reported value for CC(C)N(CC[C@H](c1ccccc1)c1cc(CCNC(=O)c2ccc(CNC(=O)CCc3ccc4n3[B-](F)(F)[N+]3=C(c5ccc[nH]5)C=CC3=C4)cc2)ccc1O)C(C)C in terms of NanoBRET Fold Response is 0.96
